assay: chemical genetic growth profiling, strain panel (AID 1159580);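 further: tested at 20 µM; growth read once vehicle control cultures reached saturation at 30 °C; 1 = growth at the plate median or of vehicle wells; lower values mean less growth of the strain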; conditions: S. cerevisiae deletion strains, growth OD, locus YHR030C, strain SLT2, active compounds read low
Among all 5,500 compounds or so, about 2,000 (36%) were called active. Roughly 18% stayed inconclusive and do not appear here. Some of the results follow.

molecule | normalized growth
CC(=O)O[C@@H]1CC2C(C)(C)[C@H](O)C=C[C@]2(C)C2CC[C@]3(C)C(=CC(=O)O[C@H]3c3ccoc3)[C@@]21C (some centres undefined) | 1.01 (inactive)
CC(=O)O[C@@H]1CC[C@@]2(C)C(C[C@@H](OC(C)=O)[C@@]3(C)C4=CC(=O)O[C@@H](c5ccoc5)[C@]4(C)CCC23)C1(C)C (some centres undefined) | 0.962 (inactive)
CC(CCC(=O)O)[C@H]1CCC2C3C(=O)C[C@@H]4CC(=O)CC[C@]4(C)C3CC(=O)[C@@]21C (some centres undefined) | 1.02 (inactive)
CC(=O)O[C@H]1CC[C@@]2(C)C(C[C@@H](OC(C)=O)[C@@]3(C)C4=CC(=O)O[C@@H](c5ccoc5)[C@]4(C)CCC23)C1(C)C (some centres undefined) | 0.955 (inactive)
